Values were extracted from patent US20230265151A1.

# cAMP EC50 values compiled below
measured.target: human glucagon-like peptide-1 (GLP-1) receptor (human, UniProt P43220 24-463)
method.notes: cell-based or functional assay
*1 amine or outer side, *2 acyl side, *3 side chain or, on linkers, in order; H or OH if unused. Where no end group is shown, it is not given here. Side-chain parts run from the residue outwards. [ ]: non-standard residue; d: D form. The star is where a group is joined. αMePhe(2-F) = C[C@](N)(Cc1ccccc1F)C(=O)O; γGlu = O=C(O)[C@H](CCC(=O)[*:2])N[*:1]; C14 diacid = O=C(O)CCCCCCCCCCCCC(=O)*; εLys = N[C@@H](CCCCN[*:1])C(=O)[*:2]; αMeY = C[C@](N)(Cc1ccc(O)cc1)C(=O)O; αMeL = CC(C)C[C@](C)(N)C(=O)O; Orn = NCCC[C@H](N)C(=O)O; Aib = CC(C)(N)C(=O)O
measured.parameter: cAMP EC50 (nM)

binder="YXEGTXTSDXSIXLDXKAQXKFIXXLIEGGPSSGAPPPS (Aib2, αMeF(2F)6, OMeY10, αMeL13, Orn16, K17(Z), Aib20, K21(Z), D-Glu24, αMeY25, C-terminal NH2; Z = AEEA2-CO-(CH2)12-CO2H) [Example 265]" value_observed=0.262
binder="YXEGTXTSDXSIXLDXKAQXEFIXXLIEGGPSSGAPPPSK (Aib2, αMeF(2F)6, OMeY10, αMeL13, Orn16, K17(Z), Aib20, D-Glu24, αMeY25, K40(Z), C-terminal NH2; Z = AEEA2-(γ-Glu)-CO-(CH2)12-CO2H) [Example 261]" value_observed=0.531
binder="Y[Aib]EGT[αMePhe(2-F)]TSDV[Aib]I[αMeL]LD[Orn]K([εLys-εLys-γGlu-C14 diacid])AQ[Aib]EFIK([εLys-εLys-γGlu-C14 diacid])[αMeY]LIEGGPSSGAPPPS-NH2 [Example 168]" value_observed=0.312
binder="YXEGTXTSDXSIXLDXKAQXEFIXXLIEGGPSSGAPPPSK (Aib2, αMeF(2F)6, 4Pal10, αMeL13, Orn16, K17(Z), Aib20, D-Glu24, αMeY25, K40(Z), C-terminal NH2; Z = AEEA2-(γ-Glu)-(10-(4-carboxyphenoxy)decanoyl)) [Example 273]" value_observed=2.08
binder="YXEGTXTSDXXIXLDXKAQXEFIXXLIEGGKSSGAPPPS (Aib2, αMeF(2F)6, 4Pal10, Dap11, αMeL13, Orn16, K17(Z), Aib20, D-Glu24, αMeY25, K31(Z), C-terminal NH2; Z = AEEA2-(γ-Glu)-CO-(CH2)12-CO2H) [Example 199]" value_observed=3.2
